Provide the recorded pIC50 for the entries that follow.
system: HT-29; test: Cytotoxicity against human HT-29 cells assessed as reduction in cell viability incubated for 48 hrs by MTT assay; assay type: functional, cell-based; conditions: HT-29, 48 h
Numbers only, as −log10 of the molar value.

The examples below pair each entry with its known result.
SMILES INPUT: COc1cc(C(=O)c2cn(-c3ccc(N)cc3)cc2-c2ccc(N)cc2)cc(OC)c1OC
SYSTEM TESTED: HT-29
pIC50: 7.47
//
SMILES INPUT: COc1cc(C(=O)c2cn(-c3cccc(N)c3)cc2-c2ccccc2F)cc(OC)c1OC
SYSTEM TESTED: HT-29
pIC50: 7.25
//
SMILES INPUT: COc1cc(C(=O)c2cn(-c3cccc(N)c3)cc2-c2ccccc2[N+](=O)[O-])cc(OC)c1OC
SYSTEM TESTED: HT-29
pIC50: 7.29
//
SMILES INPUT: COc1cc(C(=O)c2cn(-c3cccc(N)c3)cc2-c2ccc(N)cc2)cc(OC)c1OC
SYSTEM TESTED: HT-29
pIC50: 7.29

Now examine the next entry.
Using the record for COc1cc(C(=O)c2cn(-c3ccc(F)cc3)cc2-c2ccc(N)cc2)cc(OC)c1OC , report its pIC50.
7.46

---

Provide the recorded pIC50 for the entries that follow.
test system: KBM5; experiment: Cytotoxicity against human KBM5 cells expressing IM- sensitive wild type Bcr/Abl assessed as reduction in cell viability incubated for 48 hrs by MTT assay; type: functional, cell-based; details: KBM5, 48 h
Give bare numbers, as −log10 of the molar value.

The examples below pair each entry with its known result.
SMILES INPUT: COc1cc(C(=O)c2cn(-c3ccc(N)cc3)cc2-c2ccc(N)cc2)cc(OC)c1OC
pIC50: 8.00
--
SMILES INPUT: COc1cc(C(=O)c2cn(-c3cccc(N)c3)cc2-c2ccccc2[N+](=O)[O-])cc(OC)c1OC
pIC50: 7.82
--
SMILES INPUT: Cc1cn(-c2cc(NC(=O)c3ccc(C)c(Nc4nccc(-c5cccnc5)n4)c3)cc(C(F)(F)F)c2)cn1
pIC50: 7.92

Please state, for each entry, its recorded pIC50.
1. COc1cc(C(=O)c2cn(-c3ccc(F)cc3)cc2-c2ccc(N)cc2)cc(OC)c1OC
2. COc1cc(C(=O)c2cn(-c3cccc(N)c3)cc2-c2ccc(N)cc2)cc(OC)c1OC
3. COc1cc(C(=O)c2cn(-c3cccc(N)c3)cc2-c2ccccc2F)cc(OC)c1OC

[7.60, 7.85, 7.74]

---

assay: Cytotoxicity against human LAMA84-s cells expressing IM-sensitive wild type Bcr/Abl assessed as reduction in cell viability incubated for 48 hrs by MTT assay; type: functional, cell-based
REPORTED ENDPOINT: pIC50
Answers are plain numbers, as −log10 of the molar value.

SMILES INPUT: Cc1cn(-c2cc(NC(=O)c3ccc(C)c(Nc4nccc(-c5cccnc5)n4)c3)cc(C(F)(F)F)c2)cn1
RECORDED MEASUREMENT: 7.96
--
SMILES INPUT: COc1cc(C(=O)c2cn(-c3ccc(N)cc3)cc2-c2ccc(N)cc2)cc(OC)c1OC
RECORDED MEASUREMENT: 8.10
--
SMILES INPUT: COc1cc(C(=O)c2cn(-c3cccc(N)c3)cc2-c2ccccc2[N+](=O)[O-])cc(OC)c1OC
RECORDED MEASUREMENT: 7.74
--
SMILES INPUT: COc1cc(C(=O)c2cn(-c3cccc(N)c3)cc2-c2ccccc2F)cc(OC)c1OC
RECORDED MEASUREMENT: 7.82
--
SMILES INPUT: COc1cc(C(=O)c2cn(-c3cccc(N)c3)cc2-c2ccc(N)cc2)cc(OC)c1OC
RECORDED MEASUREMENT: 8.00

Using the record for COc1cc(C(=O)c2cn(-c3ccc(F)cc3)cc2-c2ccc(N)cc2)cc(OC)c1OC , report its pIC50.
7.70

---

biological target: Tubulin (Homo sapiens) (UniProt P68371+Q9H4B7+P0DPH7+P68366+Q13509+Q71U36+P04350+Q3ZCM7+P07437+P68363+Q9BQE3+Q6PEY2+Q13885+Q9BVA1+Q9BUF5); test: Inhibition of [3H]colchicine binding to tubulin (unknown origin) at 5 uM incubated for 10 mins by DEAE-cellulose filter method relative to control; format: protein-complex assay
I would appreciate it if you labelled entries yes (1) when inhibition is 70% or higher, otherwise no (0).

Illustrative cases are given below, each with its answer.
SMILES INPUT: COc1cc(C(=O)c2cn(-c3ccccc3)cc2-c2c(F)cc(F)cc2F)cc(OC)c1OC
LABEL: no (0)
--
SMILES INPUT: COc1cc(C(=O)c2cn(-c3ccccc3)cc2-c2ccc(Br)cc2)cc(OC)c1OC
LABEL: no (0)
--
SMILES INPUT: COc1cc(C(=O)c2cn(-c3ccc(N)cc3)cc2-c2ccc(N)cc2)cc(OC)c1OC
LABEL: yes (1)

Shift focus to the following entry.
Is the recorded value of inhibition equal to or greater than 70% for this compound? COc1cc(C(=O)c2cn(-c3ccccc3)cc2-c2cccc(Cl)c2)cc(OC)c1OC
no (0)

---

biological target: Tubulin (Homo sapiens) (UniProt P68371+Q9H4B7+P0DPH7+P68366+Q13509+Q71U36+P04350+Q3ZCM7+P07437+P68363+Q9BQE3+Q6PEY2+Q13885+Q9BVA1+Q9BUF5); experiment: Inhibition of [3H]colchicine binding to tubulin (unknown origin) at 5 uM incubated for 10 mins by DEAE-cellulose filter method relative to control; assay type: protein-complex assay
Provide the recorded inhibition for the entries that follow.
Numbers only, in %.

Please state, for each entry, its recorded inhibition.
1. COc1cc(C(=O)c2cn(-c3ccc(C)cc3)cc2-c2ccccc2[N+](=O)[O-])cc(OC)c1OC
2. COc1ccc(-c2cn(-c3ccccc3)cc2C(=O)c2cc(OC)c(OC)c(OC)c2)cc1
3. COc1cc(C(=O)c2cn(-c3cccc(N)c3)cc2-c2cccc(N)c2)cc(OC)c1OC
4. COc1ccc(-n2cc(C(=O)c3cc(OC)c(OC)c(OC)c3)c(-c3ccccc3)c2)cc1
5. COc1cc(C(=O)c2cn(-c3ccc(C)cc3)cc2-c2cccc([N+](=O)[O-])c2)cc(OC)c1OC

1: 71; 2: 42; 3: 70; 4: 27; 5: 36

Please state, for each entry, its recorded inhibition.
1. COc1cc(C(=O)c2cn(-c3cccc(N)c3)cc2-c2ccc([N+](=O)[O-])cc2)cc(OC)c1OC
2. COc1cc(C(=O)c2cn(-c3ccc(F)cc3)cc2-c2ccccc2F)cc(OC)c1OC
3. COc1cc(C(=O)c2cn(-c3ccccc3)cc2-c2cc(F)ccc2F)cc(OC)c1OC
4. COc1cc(C(=O)c2cn(-c3cccc(C)c3)cc2-c2ccccc2[N+](=O)[O-])cc(OC)c1OC
5. COc1cc(C(=O)c2cn(-c3ccccc3)cc2-c2cccc([N+](=O)[O-])c2)cc(OC)c1OC

[41, 68, 24, 41, 12]

---

target: Tubulin; assay: Inhibition of tubulin polymerization (unknown origin) incubated for 15 mins followed by GTP addition and measured for 20 mins by spectrophotometry
REPORTED ENDPOINT: pIC50
One number for each entry, as −log10 of the molar value.

SMILES INPUT: COc1cc(C(=O)c2cn(-c3ccc(N)cc3)cc2-c2cccc(N)c2)cc(OC)c1OC
RECORDED MEASUREMENT: 6.06

SMILES INPUT: COc1cc(C(=O)c2cn(-c3ccc(F)cc3)cc2-c2ccc(N)cc2)cc(OC)c1OC
RECORDED MEASUREMENT: 6.30

Now examine the next entry.
Using the record for COc1cc(C(=O)c2cn(-c3ccc(F)cc3)cc2-c2ccccc2F)cc(OC)c1OC , report its pIC50.
6.18

---

Provide the recorded IC50 for the entries that follow.
test system: HCT-116; test: Cytotoxicity against human HCT116 cells assessed as reduction in cell viability incubated for 48 hrs by MTT assay; assay type: functional, cell-based; settings: HCT-116, 48 h
One number for each entry, in nM.

SMILES INPUT: COc1cc(C(=O)c2cn(-c3ccc(F)cc3)cc2-c2ccc(N)cc2)cc(OC)c1OC
OUTPUT UNIT: nM
IC50: 36
//
SMILES INPUT: COc1cc(C(=O)c2cn(-c3cccc(N)c3)cc2-c2ccccc2[N+](=O)[O-])cc(OC)c1OC
OUTPUT UNIT: nM
IC50: 44

Please state, for each entry, its recorded IC50.
1. COc1cc(C(=O)c2cn(-c3cccc(N)c3)cc2-c2ccc(N)cc2)cc(OC)c1OC
2. COc1cc(C(=O)c2cn(-c3ccc(N)cc3)cc2-c2ccc(N)cc2)cc(OC)c1OC
3. COc1cc(C(=O)c2cn(-c3cccc(N)c3)cc2-c2ccccc2F)cc(OC)c1OC

1: 27; 2: 41; 3: 42

The measurements presented in this section are drawn from ChEMBL document CHEMBL4312029.
